Assay Target: UniProt:C7C422
Sequence (C7C422 whole entry, looked up, species assumed): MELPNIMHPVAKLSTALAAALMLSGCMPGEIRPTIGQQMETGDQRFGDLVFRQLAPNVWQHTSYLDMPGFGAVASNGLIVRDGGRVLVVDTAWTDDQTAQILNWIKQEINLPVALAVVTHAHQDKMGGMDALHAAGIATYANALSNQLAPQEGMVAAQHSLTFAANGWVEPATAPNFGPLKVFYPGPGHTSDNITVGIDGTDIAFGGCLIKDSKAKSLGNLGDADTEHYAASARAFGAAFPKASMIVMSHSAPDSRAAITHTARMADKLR
Assay Details: biochemical
Assay type: biochemical
Condition Context: CCF2-FA substrate, 2 hours at 25° C; read-out: NDM-1 IC50
pIC50: −log10 of the molar value.
Output 1.0 for pIC50 not less than 10; output 0.0 otherwise.

INSERT INTO assay_data (compound, assay_target, discrete_label) VALUES
  ('Nc1nnc(-c2cccc(-c3ccc(S(=O)(=O)C4CNC4)c(S(N)(=O)=O)c3-c3nnn[nH]3)c2)o1 [Example 344]', 'UniProt:C7C422', 0.0),
  ('Nc1ccc2ncc(-c3ccc(S(=O)(=O)C4CNC4)c(S(N)(=O)=O)c3-c3nn[nH]n3)n2n1 [Example 17]', 'UniProt:C7C422', 0.0),
  ('NCCS(=O)(=O)c1ccc(-c2ccc3[nH]ncc3c2)c(-c2nnn[nH]2)c1S(N)(=O)=O.O=C(O)C(F)(F)F [Example 167, 2,2,2-trifluoroacetate]', 'UniProt:C7C422', 0.0);

Challenge: Hi, just wondering whether Cn1nnc2ccc(-c3ccc(S(=O)(=O)C4CNC4)c(S(N)(=O)=O)c3-c3nnn[nH]3)cc21.O=C(O)C(F)(F)F [Example 119, 2,2,2-trifluoroacetate] shows pIC50 of 10 or higher.
Response given: 0.0

Challenge: Hi, just wondering whether NS(=O)(=O)c1c(S(=O)(=O)C2CNC2)ccc(-c2ccnc(N3CCNC3=O)c2)c1-c1nnn[nH]1 [Example 343] shows pIC50 of 10 or higher.
Response given: 0.0

Values compiled from patent US10227331B2.
